Source: patent US20220306765A1

tgt: T1, human CLDN18.2 (human)
T1 construct: also called hCLDN18.2; Claudin-18 splice variant 2
testName: FACS, HEK293-CLDN18.2 cells
Overview of recorded EC50 for various binders
Write down the numeric answer in µg/mL and omit the unit.

Sample answers from the record:
| binder | EC50 / µg/mL |
| --- | --- |
| 59A9 (antibody, V domains shown, mouse hybridoma antibody; also called hybridoma antibody 59A9) VH: QITQKESGPGILQPSQTLSLTCSLSGFSLSTYFIGVGWIRQPSGKGLEWLAHIWWNDNKYYNTALKSRLTISKDTSNNQVFLKIASVDTADTATYYCARMGSGAWFTYWGQGTLVTVSA VL: DIVMTQSPSSLTVTAGEKVTMSCKSSQSLLNSGNQKNYLTWYQQKPGQPPKLLIYWASTRESGVPDRFTGSGSGTDFTLTISSVQAEDLAVYYCQNDYYYPLTFGSGTKLEIK | 0.51 |
| 11F12 (antibody, V domains shown, mouse hybridoma antibody; also called hybridoma antibody 11F12) VH: EFQLQQSGPELEKPGASVRISCKTSGYSFTGYNMNWVKQSNGESLEWIGYIDPYYGGTRYNQKFKGKATLTVDKSSSTAYMQLKSLTSEDSAVYYCARSYYGNAFDYWGQGTTLTVSS VL: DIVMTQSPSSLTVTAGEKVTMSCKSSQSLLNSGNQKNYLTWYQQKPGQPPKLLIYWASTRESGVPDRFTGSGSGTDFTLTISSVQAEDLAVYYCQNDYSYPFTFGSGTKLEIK | 0.82 |

The record that follows has no EC50 shown yet.
What EC50 value was documented for this binder, 7C12 (antibody, V domains shown, mouse hybridoma antibody; also called hybridoma antibody 7C12) VH: EFQLQQSGPELEKPGASVRISCKTSGYSFTGYNMNWVKQSNGESLEWIGNIDPYYGATRYNQKFKGKATLTVDKSSSTAYMQLKSLTSEDSAVYYCARSYYGNAFDYWGQGTTLTVSS VL: DIVMTQSPSSLTVTAGEKVTMSCKSSQSLLNSGNQKNYLTWYQQKPGQPPKLLIYWASTRESGVPDRFTGSGSGTDFTLTISSVQAEDLAVYYCQNDYSFPFTFGSGTKLEIK ?
1.08
